Below, each entry is listed with its recorded melting point.
endpoint: melting point

compound="CC(C)CC(C=O)NC(=O)C(Cc1c[nH]cn1)NC(=O)C1Cc2c([nH]c3ccccc23)CN1C(=O)OCc1ccccc1 (stereo not given)" measured="126 to 130 °C"
compound=CCOC(=O)c1cnc(Nc2ccccc2OCC(C)C)[nH]c1=O measured="175 to 177 °C"
compound=CCCCc1nc(N)c(N)c(=O)[nH]1 measured="160 to 165 °C"
compound=C=CCOc1ccc(-c2cc3ccccc3[nH]2)cc1 measured="214 °C"
compound="c1ccc(C(C2=NCCN2)c2ccccn2)cc1 (stereo not given)" measured="134 to 136 °C"
compound=COc1ccccc1NC(=O)Nc1nc(N2CCCCC2)nc(N(CCC(=O)O)Cc2ccc(Cl)c(Cl)c2)n1 measured="111 to 115 °C"
compound=COc1cc2ncc(C#N)c(Nc3ccc(F)c(Cl)c3)c2cc1NC(=O)C=CCN1CCC(N2CCCCC2)CC1 measured="140 to 144 °C"
compound="OC1CSC(Oc2cncc(-c3ccccc3)c2)C(O)C1O (stereo not given)" measured="169 °C"
compound="CSC(=S)OC(C(=O)O)c1ccccc1 (stereo not given)" measured="109 to 110 °C"
compound="COC(=O)NC(CC(=O)c1ccc(Cl)cc1)C(=O)O (stereo not given)" measured="141 to 142 °C"
